IC50 for assorted compounds
Test system: 328373-195-R-J1-PDC complex spheroids, viability % test/control
Assay: Anticancer human tumor 328373-195-R-J1-PDC patient-derived head and neck squamous carcinoma cell line growth inhibition [CLK]
Conditions: curve of first compound; second compound 1 µM

Study these solved cases before continuing.
>  <Compound>
C=C(F)C(=O)N1CCN(c2nc(OCC3CCCN3C)nc3c2CCN(c2cccc4cccc(Cl)c24)C3)CC1CC#N (stereo not drawn) + CNC(=O)c1ccc(Nc2nc(OC3CCCC3)c3c(-c4ccc5nc(C)oc5c4)c[nH]c3n2)c(OC)c1

>  <Tested system>
328373-195-R-J1-PDC complex spheroids, viability % test/control

>  <Experimental result>
< 31.6 nM

$$$$
>  <Compound>
Nc1ccn(C2OC(CO)C(O)C2(F)F)c(=O)n1 (stereo not drawn) + CNC(=O)c1ccc(Nc2nc(OC3CCCC3)c3c(-c4ccc5nc(C)oc5c4)c[nH]c3n2)c(OC)c1

>  <Tested system>
328373-195-R-J1-PDC complex spheroids, viability % test/control

>  <Experimental result>
< 31.6 nM

$$$$

Shifting focus to the compound that follows.
Would you kindly share the measured IC50 for COC1C=CCC(C)C(C)S(=O)(=O)NC(=O)c2ccc3c(c2)N(CC2CCC21)CC1(CCCc2cc(Cl)ccc21)CO3 (stereo not drawn) + CN1CCN(c2cc(C(=O)Nc3cc4cc(-c5cnn(C)c5)ccc4cn3)ccn2)CC1 ? < 31.6 nM

====

Test system: 328373-195-R-J1-PDC complex spheroids, viability % test/control
Assay: Anticancer human tumor 328373-195-R-J1-PDC cell line growth inhibition [CLK]; active = viability on the fitted dose curve at most 10% of control; inactive = the rest;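 also: spheroids exposed to the agents for 7 days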
Settings: second compound 0.1 µM; first compound 0.1 µM
Valid outcomes are listed here; reply with one: 1.0 = active, 0.0 = inactive

Which outcome was entered for the molecule C#Cc1c(F)ccc2cc(O)cc(-c3ncc4c(N5CC6CCC(C5)N6)nc(OCC56CCCN5CC(F)C6)nc4c3F)c12 (stereo not given) + CNC(=O)c1ccc(Nc2nc(OC3CCCC3)c3c(-c4ccc5nc(C)oc5c4)c[nH]c3n2)c(OC)c1 in this test? 1.0

====

Test system: 328373-195-R-J1-PDC complex spheroids, viability % test/control
Experiment: Anticancer human tumor 328373-195-R-J1-PDC cell line growth inhibition [CLK];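 also: spheroids exposed to the agents for 7 days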
Conditions: second compound 3.16 µM; first compound 0.1 µM; stronger effect = lower value
# if measured viability, T/C < 4%: Condition met  # else: Condition not met

Some entries whose results are on file:
>  <Molecule>
O=c1[nH]cc(F)c(=O)[nH]1 + CN1CCN(c2cc(C(=O)Nc3cc4cc(-c5cnn(C)c5)ccc4cn3)ccn2)CC1

>  <Label value>
Condition met

$$$$
>  <Molecule>
COc1c(OCCCN2CCOCC2)ccc2c3n(c(=NC(=O)c4cnc(N)nc4)nc12)CCN3 + CN1CCN(c2cc(C(=O)Nc3cc4cc(-c5cnn(C)c5)ccc4cn3)ccn2)CC1

>  <Label value>
Condition met

$$$$
>  <Molecule>
O=C(c1cc(Cc2n[nH]c(=O)c3ccccc23)ccc1F)N1CCN(C(=O)C2CC2)CC1 + CNC(=O)c1ccc(Nc2nc(OC3CCCC3)c3c(-c4ccc5nc(C)oc5c4)c[nH]c3n2)c(OC)c1

>  <Label value>
Condition not met

$$$$
>  <Molecule>
C=CC(=O)N1CCN(c2nc(=O)n(-c3c(C)ccnc3C(C)C)c3nc(-c4c(O)cccc4F)c(F)cc23)C(C)C1 (stereo not given) + CNC(=O)c1ccc(Nc2nc(OC3CCCC3)c3c(-c4ccc5nc(C)oc5c4)c[nH]c3n2)c(OC)c1

>  <Label value>
Condition not met

$$$$

Turning now to a further molecule:
Please indicate whether the reported viability, T/C of CC1(C)CCC(CN2CCN(c3ccc(C(=O)NS(=O)(=O)c4ccc(NCC5CCOCC5)c([N+](=O)[O-])c4)c(Oc4cnc5[nH]ccc5c4)c3)CC2)=C(c2ccc(Cl)cc2)C1 + CN1CCN(c2cc(C(=O)Nc3cc4cc(-c5cnn(C)c5)ccc4cn3)ccn2)CC1 is strictly below 4%. Condition met
